z-score by entry:
assay-text: basal HepG2 mitochondrial membrane potential changes, profiling panel, cell-based, JC-1 fluorescence, 24 h, 100 nL compound (AID 1167); note: test concentration not given here
test-conditions: higher = more signal
Answer field: number only, no words.

Some molecules with known z-score results, for comparison:
>  <molecule>
CCOC(=O)NN=C1C[C@@H](O)[C@@H](O)[C@@H]2[C@@H]3C(=O)N(CC)C(=O)[C@@H]3CC[C@@H]12

>  <z-score>
-0.495

$$$$
>  <molecule>
O=C1O[C@@H](c2ccccc2)[C@@H](c2ccccc2)N2[C@@H](c3ccc(O)cc3)[C@]3(C(=O)Nc4ccccc43)[C@@H](C(=O)O)[C@H]12

>  <z-score>
-0.517

$$$$
>  <molecule>
CCCNC(=O)OC[C@H]1O[C@H](CCON=C2[C@H]3CCn4c(=O)n(-c5ccccc5)c(=O)n4[C@H]3[C@H](O)[C@@H]3O[C@H]23)C=C[C@@H]1Oc1ccc(OC)cc1

>  <z-score>
-0.25

$$$$
>  <molecule>
O=C1C[C@@H](O)[C@@H](O)[C@@H]2[C@@H]3C(=O)N(c4ccc(F)cc4F)C(=O)[C@@H]3CC[C@@H]12

>  <z-score>
-0.56

$$$$
>  <molecule>
CO[C@@H]1COC(=O)CC=C[C@@H](C)COC(=O)[C@H](COCc2ccccc2)NC(=O)CC=C[C@H]1C

>  <z-score>
0.575

$$$$
>  <molecule>
C=CCOC(=O)[C@H]1[C@@H]2C(=O)O[C@@H](c3ccccc3)[C@@H](c3ccccc3)N2[C@@H](c2ccc(OCCOC(=O)[C@H]3C[C@H]4C(=O)N5CCC[C@H]5C(=O)N4[C@H]3c3cccc(OCCO)c3)cc2)[C@]12C(=O)Nc1ccc(I)cc12

>  <z-score>
-0.0589

$$$$

get_value(item= CCOC(=O)CCN1C(=O)[C@H]2[C@H]3[C@H](O)C=CC(=O)[C@@H]3CC[C@H]2C1=O , readout=z-score) returns 0.0469

get_value(item= CN(C)c1ccc(C(O)C2C=CC3C(=O)N(c4ccccc4)C(=O)C3N2Nc2ccccc2F)cc1 (centres undefined) , readout=z-score) returns -2.24

get_value(item= CC(C)c1ccc(NN2C(C(O)c3ccc4c(c3)OCO4)C=CC3C(=O)N(c4ccccc4)C(=O)C32)cc1 (centres undefined) , readout=z-score) returns -1.53

get_value(item= CO[C@H]1O[C@H](CO)[C@@H](OC(=O)Nc2ccc(C#N)cc2)[C@H](OC(=O)c2cc3ccccc3[nH]2)[C@H]1OC(=O)c1cc2ccccc2[nH]1 , readout=z-score) returns -1.55

get_value(item= CC(C)OC(=O)C=C1C[C@@H](c2ccc(C#N)cc2)O[C@@H](c2ccc(C#N)cc2)O1 , readout=z-score) returns -1.06

get_value(item= CC(C)(C)N1C(=O)[C@H]2[C@H]3[C@H](O)[C@H](O)CC(=NOCc4ccccc4)[C@@H]3CC[C@H]2C1=O , readout=z-score) returns 0.858

get_value(item= O=C1[C@H]2[C@H]3[C@H](O)[C@H](O)CC(=NOCc4ccccc4)[C@H]3CC[C@H]2C(=O)N1c1cccc(Oc2ccccc2)c1 , readout=z-score) returns -0.988

get_value(item= O=C1[C@H]2[C@H]3[C@H](O)[C@H](O)CC(=NO[C@@H]4O[C@H](CO)[C@@H](O)[C@H](O)[C@H]4O)[C@@H]3CC[C@H]2C(=O)N1c1ccc(F)cc1F , readout=z-score) returns 0.717
